Origin of the recorded values: ChEMBL document CHEMBL1201862

tested on: HOP-62; test: NCI tumour cell line growth inhibition, 48 h
Activity calls are given as the source filed them. Rule as the data show it: active = GI50 up to about 1.1 µM and inactive = higher.
Reported GI50 values for the following compounds.

For orientation, consider the following solved cases.
CC1(C)CC(=O)c2c(nc3c(ccc4ccccc43)c2-c2ccc(NC(=O)CCCC(=O)Nc3ccc(-c4c5c(nc6c4ccc4ccccc46)CC(C)(C)CC5=O)cc3)cc2)C1: > 100 µM (inactive)
Cn1c(N=P(c2ccccc2)(c2ccccc2)c2ccccc2)c([N+](=O)[O-])c(=O)n(C)c1=O: 48 µM (inactive)

Challenge: Fill in reported GI50 for this entry: Cc1ccc(S(=O)(=O)NNC(=O)Nc2ccc(Cl)cc2)cc1
Response given: > 100 µM (inactive)

Challenge: Fill in reported GI50 for this entry: CN(Cc1cccc2ccsc12)/N=C\c1ccc(Cl)cc1
Response given: > 100 µM (inactive)

Challenge: Fill in reported GI50 for this entry: Cc1ccccc1/N=N/c1ccc(/N=N/c2c(O)ccc3cc(S(=O)(=O)O)cc(S(=O)(=O)O)c23)c(C)c1
Response given: > 100 µM (inactive)

Challenge: Fill in reported GI50 for this entry: CN(C)C1C(O)=C(C(=O)NCN2CCCC2)C(=O)C2(O)C(O)=C3C(=O)c4c(O)cccc4C(C)(O)C3CC12 (stereo not drawn)
Response given: > 100 µM (inactive)

Challenge: Fill in reported GI50 for this entry: CN(C)CCC(/C=C/c1ccccc1)=N\Nc1ccc(Cl)c(Cl)c1
Response given: 3.15 µM (inactive)

Challenge: Fill in reported GI50 for this entry: CCCc1n[nH]c(CCC(=O)N(Cc2ccccc2)Cc2ccccc2)c1CC
Response given: > 100 µM (inactive)

Challenge: Fill in reported GI50 for this entry: Cc1ccc2c(c1)SC(c1cc3c(cc1Br)OCO3)S2 (stereo not drawn)
Response given: > 31.6 µM (inactive)

Challenge: Fill in reported GI50 for this entry: CC1CC[C@@]2(OC1)OC1C[C@H]3[C@@H]4CC[C@H]5CC(OC6OC(CO)C(O)C(OC7OC(CO)C(OC8OC(CO)C(O)C(OC9OC(CO)C(O)C(O)C9O)C8OC8OC(CO)C(O)C(O)C8O)C(O)C7O)C6O)[C@H](O)CC5(C)[C@H]4CCC3(C)C1[C@@H]2C (stereo partly drawn)
Response given: 2.28 µM (inactive)
